Here, compounds appear alongside IC50 reported for Tyrosine-protein kinase JAK3 (Homo sapiens) in the literature.

Response field IC50 (Tyrosine-protein kinase JAK3 (Homo sapiens)) for item O=C1C=C(Nc2cccc(OCCNc3ccnc(F)c3)c2)C(=O)N1 : > 10 µM

Response field IC50 (Tyrosine-protein kinase JAK3 (Homo sapiens)) for item COc1cc2ncc(N[C@H]3CC[C@H](O)CC3)nc2cc1OC : > 50 µM

Response field IC50 (Tyrosine-protein kinase JAK3 (Homo sapiens)) for item Cc1ccc(NC(=O)c2cc(F)cc(C(F)(F)F)c2)cc1C(=O)Nc1cnc(Nc2ccc(N3CCN(C)CC3)cc2)nc1 : > 25 µM

Response field IC50 (Tyrosine-protein kinase JAK3 (Homo sapiens)) for item CC(C)(C)/C=C(/C#N)C(=O)N1CCC[C@@H](n2nc(-c3ccc(Oc4ccccc4)cc3)c3c(N)ncnc32)C1 : > 5 µM

Response field IC50 (Tyrosine-protein kinase JAK3 (Homo sapiens)) for item Oc1cccc(Nc2ccnc3[nH]c4ccccc4c23)c1 : > 10 µM

====

Target: Tyrosine-protein kinase JAK3 (Homo sapiens)
Sequence (P52333 whole entry): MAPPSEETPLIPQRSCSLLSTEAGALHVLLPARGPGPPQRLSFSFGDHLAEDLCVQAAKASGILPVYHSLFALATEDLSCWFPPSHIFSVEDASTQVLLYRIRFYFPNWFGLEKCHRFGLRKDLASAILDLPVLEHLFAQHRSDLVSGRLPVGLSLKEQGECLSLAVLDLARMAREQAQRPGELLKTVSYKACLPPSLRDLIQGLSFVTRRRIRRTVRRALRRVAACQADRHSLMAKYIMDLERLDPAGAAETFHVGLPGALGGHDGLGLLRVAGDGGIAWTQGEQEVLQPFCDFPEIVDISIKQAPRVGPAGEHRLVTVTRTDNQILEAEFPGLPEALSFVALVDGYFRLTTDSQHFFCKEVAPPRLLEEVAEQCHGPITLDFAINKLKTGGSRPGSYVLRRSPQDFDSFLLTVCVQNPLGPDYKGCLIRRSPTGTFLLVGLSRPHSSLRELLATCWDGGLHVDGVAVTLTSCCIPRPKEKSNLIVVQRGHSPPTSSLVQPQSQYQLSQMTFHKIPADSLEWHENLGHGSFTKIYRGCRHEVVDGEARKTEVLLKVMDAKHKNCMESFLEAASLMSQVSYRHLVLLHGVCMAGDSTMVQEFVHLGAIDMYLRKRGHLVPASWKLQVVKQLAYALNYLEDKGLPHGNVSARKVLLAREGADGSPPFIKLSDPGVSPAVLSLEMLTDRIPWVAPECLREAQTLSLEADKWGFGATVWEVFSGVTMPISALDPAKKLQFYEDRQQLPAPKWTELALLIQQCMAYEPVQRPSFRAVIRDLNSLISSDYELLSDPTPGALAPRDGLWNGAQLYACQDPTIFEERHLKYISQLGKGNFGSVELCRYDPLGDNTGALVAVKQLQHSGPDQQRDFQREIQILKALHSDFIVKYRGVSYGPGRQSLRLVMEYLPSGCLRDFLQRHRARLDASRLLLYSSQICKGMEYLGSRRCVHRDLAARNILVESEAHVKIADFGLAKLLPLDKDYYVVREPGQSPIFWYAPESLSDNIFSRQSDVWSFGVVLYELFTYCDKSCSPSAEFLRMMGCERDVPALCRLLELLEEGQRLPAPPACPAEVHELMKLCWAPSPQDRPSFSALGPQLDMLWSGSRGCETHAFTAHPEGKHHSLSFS
pIC50: −log10 of the molar value.
Here, compounds appear alongside pIC50 reported for Tyrosine-protein kinase JAK3 (Homo sapiens) in the literature.

Take a look at these entries with their results.
{"Chem smiles": "CC(C)(/C=C(/C#N)C(=O)N1CCC[C@@H]1Cn1nc(-c2ccc(Oc3ccccc3)cc2F)c2c(N)ncnc21)N1CCOCC1", "Test system": "Tyrosine-protein kinase JAK3 (Homo sapiens)", "pIC50": "< 5.30"}
{"Chem smiles": "CC(=O)Nc1ccc(C)c(C(=O)Nc2cnc(Nc3ccc(N4CCN(C)CC4)cc3)nc2)c1", "Test system": "Tyrosine-protein kinase JAK3 (Homo sapiens)", "pIC50": "< 4.60"}

Now, please, on to the next compound.
Response field pIC50 (Tyrosine-protein kinase JAK3 (Homo sapiens)) for item COc1cc(-c2cnc3cccc(-c4ccc(CN5CCOCC5)cc4)c3n2)cc(OC)c1OC : < 5.00
